Recorded values, source patent US9556150B2.

Please respond with reported pIC50 for every item in the list.
target: Bruton's Tyrosine Kinase (BTK), inactivated state (Homo sapiens (Human), UniProt Q06187); test: Bruton's Tyrosine Kinase (BTK) Inhibition TR-FRET (Time Resolved FRET) competition assay; details: TR-FRET competition with Kinase Tracer 178, BTK-Eu complex, 18-24 h at 14° C.
Sequence (Q06187 whole entry): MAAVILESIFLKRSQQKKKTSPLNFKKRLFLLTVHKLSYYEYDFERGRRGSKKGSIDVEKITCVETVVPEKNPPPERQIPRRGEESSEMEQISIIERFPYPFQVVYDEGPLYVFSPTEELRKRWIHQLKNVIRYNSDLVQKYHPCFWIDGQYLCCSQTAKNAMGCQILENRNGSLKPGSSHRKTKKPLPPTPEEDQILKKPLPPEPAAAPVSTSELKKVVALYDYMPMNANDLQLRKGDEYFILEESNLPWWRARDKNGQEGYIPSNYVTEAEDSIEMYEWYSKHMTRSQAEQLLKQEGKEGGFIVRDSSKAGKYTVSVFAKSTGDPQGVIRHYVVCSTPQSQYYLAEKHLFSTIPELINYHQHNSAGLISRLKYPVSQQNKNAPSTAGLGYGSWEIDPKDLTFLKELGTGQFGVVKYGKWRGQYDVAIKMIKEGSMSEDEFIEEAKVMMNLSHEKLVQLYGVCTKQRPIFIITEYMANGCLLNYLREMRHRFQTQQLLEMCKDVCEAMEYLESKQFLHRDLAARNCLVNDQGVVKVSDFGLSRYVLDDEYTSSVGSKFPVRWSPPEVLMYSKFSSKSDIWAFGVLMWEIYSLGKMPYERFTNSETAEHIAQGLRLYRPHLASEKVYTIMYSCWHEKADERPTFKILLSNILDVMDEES
Structures can show the parent of a compound that is named as a salt.
One number for each entry, as −log10 of the molar value.

| COMPOUND | SYSTEM_NAME | pIC50 |
| --- | --- | --- |
| N#CNC(=O)c1ccc2[nH]c(C(=O)c3cnn(-c4ccc(Oc5cccc(C#N)c5)cc4Cl)c3N)cc2c1 | Bruton's Tyrosine Kinase (BTK), inactivated state (Homo sapiens (Human), UniProt Q06187) | 7.28 |
| Cc1cc(Oc2cccc(C#N)c2)ccc1-n1ncc(C(=O)c2cc3cc(C(=O)O)ccc3[nH]2)c1N | Bruton's Tyrosine Kinase (BTK), inactivated state (Homo sapiens (Human), UniProt Q06187) | 7.66 |
| CNC1CCN(C(=O)c2ccc3[nH]c(C(=O)c4cnn(-c5ccc(Oc6ccccc6C(=O)N(C)C)cc5Cl)c4N)cc3c2)C1 (stereo not shown) [Example I-53, acetic acid salt] | Bruton's Tyrosine Kinase (BTK), inactivated state (Homo sapiens (Human), UniProt Q06187) | 8.77 |
| CN(C)C(=O)c1ccccc1Oc1ccc(-n2ncc(C(=O)c3cc4cc(C(=O)NCCN(C)C(=O)OC(C)(C)C)ccc4[nH]3)c2N)c(Cl)c1 | Bruton's Tyrosine Kinase (BTK), inactivated state (Homo sapiens (Human), UniProt Q06187) | 8.29 |

Your task in this section: give pIC50 for each listed record.
1. CN(C)C(=O)c1ccccc1Oc1ccc(-n2ncc(C(=O)c3cc4cc(C(=O)N5CCC(N(C)C)C5)ccc4[nH]3)c2N)c(Cl)c1 (stereo not shown)
2. COc1cc(Oc2cccc(F)c2F)ccc1-n1ncc(C(=O)c2cc3cc(C(=O)N4CCOCC4)ccc3[nH]2)c1N

Data returned:
1: 8.60; 2: 8.16
